// reported IC50 for each item listed
biological target: recombinant form of Glutaminase 1 (GAC) (Homo sapiens, UniProt O94925); test: Recombinant Enzyme Assay (GAC coupled to GDH, NADH absorbance, no preincubation); type: biochemical; settings: no preincubation; read-out: GAC Delta N2 IC50 no preinc

compound: CC(C(=O)Nc1nnc(CCCCc2nnc(NC(=O)C(C)c3ccccc3Cl)s2)s1)c1ccccc1Cl (centres unmarked) [Compound 274]
system-name: recombinant form of Glutaminase 1 (GAC) (Homo sapiens, UniProt O94925)
output-unit: nM
IC50: 750
//
compound: O=C(COc1ccccc1)Nc1nnc(CCCCc2nnc(NC(=O)COc3ccccc3)s2)s1 [Compound 43]
system-name: recombinant form of Glutaminase 1 (GAC) (Homo sapiens, UniProt O94925)
output-unit: nM
IC50: 2300
//
compound: CN(C)c1ccc(CC(=O)Nc2nnc(CCCCc3nnc(NC(=O)Cc4ccc(N(C)C)cc4)s3)s2)cc1 [Compound 164]
system-name: recombinant form of Glutaminase 1 (GAC) (Homo sapiens, UniProt O94925)
output-unit: nM
IC50: 240
//
compound: CC(C)(C)OC(=O)N1CCCC(CC(=O)Nc2nnc(CCSCCc3nnc(NC(=O)CC4CCCN(C(=O)OC(C)(C)C)C4)s3)s2)C1 (centres unmarked) [Compound 112]
system-name: recombinant form of Glutaminase 1 (GAC) (Homo sapiens, UniProt O94925)
output-unit: nM
IC50: 510
//
compound: O=C(Nc1nnc(CCCCc2nnc(NC(=O)C(CO)c3cccs3)s2)s1)C(CO)c1cccs1 (centres unmarked) [Compound 190]
system-name: recombinant form of Glutaminase 1 (GAC) (Homo sapiens, UniProt O94925)
output-unit: nM
IC50: 250
//
compound: CC(C)[C@H](N)C(=O)Nc1nnc(CCSCCc2nnc(NC(=O)Cc3ccccc3)s2)s1 [Compound 32]
system-name: recombinant form of Glutaminase 1 (GAC) (Homo sapiens, UniProt O94925)
output-unit: nM
IC50: 7000
//
compound: O=C(CO)Nc1nnc(CCSCCc2nnc(NC(=O)CO)s2)s1 [Compound 253]
system-name: recombinant form of Glutaminase 1 (GAC) (Homo sapiens, UniProt O94925)
output-unit: nM
IC50: 21000
//
compound: O=C(Cc1ccccc1)Nc1nnc(CCSCc2nnc(NC(=O)Cc3cccc(OCCN4CCOCC4)c3)s2)s1 [Compound 378]
system-name: recombinant form of Glutaminase 1 (GAC) (Homo sapiens, UniProt O94925)
output-unit: nM
IC50: 220

====

Property: solubility at 18 h; scope: individual compounds
assay: Solubility (18 hr vortex mixing at room temperature, filtration, HPLC); format: physicochemical; conditions: 50 mM citrate buffer pH 3.3, 20 °C, aqueous buffer, thermodynamic from solid; 50 mM Cit pH 3.3; room temperature
property: solubility at 18 h

compound: CCCC(=O)OCN(C(=O)Cc1ccccc1)c1nnc(CCCCc2ccc(NC(=O)Cc3ccccc3)nn2)s1 [Compound 402]
result: < 4 µg/mL
--
compound: O=C(Cc1cccc(OC(F)(F)F)c1)Nc1ccc(CCCCc2nnc(NC(=O)Cc3ccccc3)s2)nn1 [Compound 585]
result: < 2 µg/mL
--
compound: O=C(Cc1cccc(OC(F)(F)F)c1)Nc1ccc(CCCCc2nnc(NC(=O)C(O)c3cccc(Cl)c3)s2)nn1 (centres unmarked) [Compound 447]
result: < 4 µg/mL
--
compound: O=C(Cc1cccc(OC(F)(F)F)c1)Nc1ccc(CCCCc2nnc(NC(=O)[C@@H](O)c3ccccc3)s2)nn1 [Compound 703]
result: < 4 µg/mL
--
compound: O=C(Cc1ccccc1)Nc1ccc(CCCCc2nnc(NC(=O)Cc3ccccc3)s2)nn1 [Compound 295]
result: < 2 µg/mL

====

biological target: recombinant form of Glutaminase 1 (GAC) (Homo sapiens); assay: Recombinant Enzyme Assay (GAC coupled to GDH, NADH absorbance, no preincubation); type: biochemical; settings: no preincubation; read-out: GAC Delta N2 IC50 no preinc
pIC50: −log10 of the molar value.
Below: a set of entries, each annotated with reported pIC50.

molecule: O=C(Cc1cccc(OCCN2CCOCC2)c1)Nc1nnc(CCSCc2nnc(NC(=O)Cc3cccc(OCCN4CCOCC4)c3)s2)s1 [Compound 267]
system-name: recombinant form of Glutaminase 1 (GAC) (Homo sapiens)
limit-sign: =
pIC50: 6.21
--
molecule: O=C(Cc1csc2ccccc12)Nc1nnc(CCSCCc2nnc(NC(=O)Cc3csc4ccccc34)s2)s1 [Compound 212]
system-name: recombinant form of Glutaminase 1 (GAC) (Homo sapiens)
limit-sign: <
pIC50: 4.70
--
molecule: CC(=O)OC(C(=O)Nc1nnc(CCCc2nnc(NC(=O)C(OC(C)=O)c3ccccc3)s2)s1)c1ccccc1 (centres unmarked) [Compound 171]
system-name: recombinant form of Glutaminase 1 (GAC) (Homo sapiens)
limit-sign: <
pIC50: 4.70
--
molecule: CC(C)(C)OC(=O)N1CCN(Cc2cccc(CC(=O)Nc3nnc(CCSCc4nnc(NC(=O)Cc5cccc(CN6CCN(C(=O)OC(C)(C)C)CC6)c5)s4)s3)c2)CC1 [Compound 275]
system-name: recombinant form of Glutaminase 1 (GAC) (Homo sapiens)
limit-sign: =
pIC50: 5.66
--
molecule: O=C(CN1C(=O)OC[C@H]1c1ccccc1)Nc1nnc(CCSCCc2nnc(NC(=O)CN3C(=O)OC[C@H]3c3ccccc3)s2)s1 [Compound 243]
system-name: recombinant form of Glutaminase 1 (GAC) (Homo sapiens)
limit-sign: =
pIC50: 5.57
--
molecule: COCC(C(=O)Nc1nnc(CCCCc2nnc(NC(=O)C(COC)c3ccccc3)s2)s1)c1ccccc1 (centres unmarked) [Compound 165]
system-name: recombinant form of Glutaminase 1 (GAC) (Homo sapiens)
limit-sign: =
pIC50: 6.29
--
molecule: CC[C@](O)(C(=O)Nc1nnc(CCSCCc2nnc(NC(=O)[C@@](O)(CC)c3ccccc3)s2)s1)c1ccccc1 [Compound 141]
system-name: recombinant form of Glutaminase 1 (GAC) (Homo sapiens)
limit-sign: =
pIC50: 5.77
--
molecule: CC(C(=O)Nc1nnc(CCSCCc2nnc(N)s2)s1)c1ccccc1 (centres unmarked) [Compound 20]
system-name: recombinant form of Glutaminase 1 (GAC) (Homo sapiens)
limit-sign: =
pIC50: 5.18
--
molecule: O=C(Nc1nnc(CCCCc2nnc(NC(=O)C(F)(F)c3ccccc3)s2)s1)C(F)(F)c1ccccc1 [Compound 303]
system-name: recombinant form of Glutaminase 1 (GAC) (Homo sapiens)
limit-sign: <
pIC50: 4.70
--
molecule: C[C@@H](O)[C@H](N)C(=O)Nc1nnc(CCSCCc2nnc(NC(=O)[C@@H](N)[C@@H](C)O)s2)s1 [Compound 139]
system-name: recombinant form of Glutaminase 1 (GAC) (Homo sapiens)
limit-sign: <
pIC50: 4.70
--
molecule: NC(C(=O)Nc1nnc(CCSCCc2nnc(NC(=O)C(N)C3CCCC3)s2)s1)C1CCCC1 (centres unmarked) [Compound 125]
system-name: recombinant form of Glutaminase 1 (GAC) (Homo sapiens)
limit-sign: <
pIC50: 4.70
--
molecule: O=C(Nc1nnc(CCCc2nnc(NC(=O)C(O)Cc3ccccc3)s2)s1)C(O)Cc1ccccc1 (centres unmarked) [Compound 170]
system-name: recombinant form of Glutaminase 1 (GAC) (Homo sapiens)
limit-sign: =
pIC50: 5.13
--
molecule: O=C(Nc1nnc(CCCc2nnc(NC(=O)C(O)c3ccccc3)s2)s1)C(O)c1ccccc1 (centres unmarked) [Compound 172]
system-name: recombinant form of Glutaminase 1 (GAC) (Homo sapiens)
limit-sign: =
pIC50: 5.77
--
molecule: O=C(CC(C(=O)O)c1ccccc1)Nc1nnc(CCCCc2nnc(NC(=O)CC(C(=O)O)c3ccccc3)s2)s1 (centres unmarked) [Compound 177]
system-name: recombinant form of Glutaminase 1 (GAC) (Homo sapiens)
limit-sign: =
pIC50: 5.96
--
molecule: COC(C(=O)Nc1nnc(CCSCCc2nnc(NC(=O)C(OC)c3ccccc3)s2)s1)c1ccccc1 (centres unmarked) [Compound 67]
system-name: recombinant form of Glutaminase 1 (GAC) (Homo sapiens)
limit-sign: =
pIC50: 5.52
--
molecule: CC(C)[C@H](NC(=O)OC(C)(C)C)C(=O)Nc1nnc(CCSCCc2nnc(NC(=O)Cc3ccccc3)s2)s1 [Compound 33]
system-name: recombinant form of Glutaminase 1 (GAC) (Homo sapiens)
limit-sign: =
pIC50: 4.89
--
molecule: O=C(Cc1cccc(Br)c1)Nc1nnc(CCCCc2nnc(NC(=O)Cc3cccc(Br)c3)s2)s1 [Compound 284]
system-name: recombinant form of Glutaminase 1 (GAC) (Homo sapiens)
limit-sign: <
pIC50: 4.70
--
molecule: O=C(Nc1nnc(CCCCc2nnc(NC(=O)C3Cc4cc(Cl)ccc4O3)s2)s1)C1Cc2cc(Cl)ccc2O1 (centres unmarked) [Compound 120]
system-name: recombinant form of Glutaminase 1 (GAC) (Homo sapiens)
limit-sign: =
pIC50: 5.74
--
molecule: CC(C)[C@H](N)C(=O)Nc1nnc(CCCCc2nnc(NC(=O)[C@@H](N)C(C)C)s2)s1 [Compound 73]
system-name: recombinant form of Glutaminase 1 (GAC) (Homo sapiens)
limit-sign: <
pIC50: 4.30
--
molecule: O=C(Cc1ccccc1Br)Nc1nnc(CCCCc2nnc(NC(=O)Cc3ccccc3Br)s2)s1 [Compound 282]
system-name: recombinant form of Glutaminase 1 (GAC) (Homo sapiens)
limit-sign: =
pIC50: 7.09
--
molecule: O=C(Nc1nnc(CCSCCc2nnc(NC(=O)C3(C(F)(F)F)CC3)s2)s1)C1(C(F)(F)F)CC1 [Compound 59]
system-name: recombinant form of Glutaminase 1 (GAC) (Homo sapiens)
limit-sign: <
pIC50: 4.30
--
molecule: O=C(Nc1nnc(CCSCCc2nnc(NC(=O)C3Cc4ccccc4O3)s2)s1)C1Cc2ccccc2O1 (centres unmarked) [Compound 50]
system-name: recombinant form of Glutaminase 1 (GAC) (Homo sapiens)
limit-sign: =
pIC50: 5.60
--
molecule: O=C(CC1CCCCC1)Nc1nnc(CCSCCc2nnc(NC(=O)CC3CCCCC3)s2)s1 [Compound 48]
system-name: recombinant form of Glutaminase 1 (GAC) (Homo sapiens)
limit-sign: <
pIC50: 4.30
--
molecule: O=C(Cc1cccc(Cn2cccn2)c1)Nc1nnc(CCCCc2nnc(NC(=O)Cc3cccc(Cn4cccn4)c3)s2)s1 [Compound 362]
system-name: recombinant form of Glutaminase 1 (GAC) (Homo sapiens)
limit-sign: =
pIC50: 6.46
--
molecule: CC(C)(C)OC(=O)N1CCN(C(C(=O)Nc2nnc(CCSCCc3nnc(NC(=O)C(c4ccccc4)N4CCN(C(=O)OC(C)(C)C)CC4)s3)s2)c2ccccc2)CC1 (centres unmarked) [Compound 76]
system-name: recombinant form of Glutaminase 1 (GAC) (Homo sapiens)
limit-sign: <
pIC50: 4.30
--
molecule: O=C(Cc1ccc(Cl)s1)Nc1nnc(CCSCCc2nnc(NC(=O)Cc3ccc(Cl)s3)s2)s1 [Compound 206]
system-name: recombinant form of Glutaminase 1 (GAC) (Homo sapiens)
limit-sign: <
pIC50: 4.70
--
molecule: O=C(Cc1cccc(-n2cccn2)c1)Nc1nnc(CCCCc2nnc(NC(=O)Cc3cccc(-n4cccn4)c3)s2)s1 [Compound 285]
system-name: recombinant form of Glutaminase 1 (GAC) (Homo sapiens)
limit-sign: =
pIC50: 6.72
--
molecule: O=C(Cc1ccccc1Br)Nc1nnc(CCSCCc2nnc(NC(=O)Cc3ccccc3Br)s2)s1 [Compound 283]
system-name: recombinant form of Glutaminase 1 (GAC) (Homo sapiens)
limit-sign: =
pIC50: 6.18
--
molecule: O=C(Nc1nnc(CCSCCc2nnc(NC(=O)C3Cc4cc(Cl)ccc4O3)s2)s1)C1Cc2cc(Cl)ccc2O1 (centres unmarked) [Compound 189]
system-name: recombinant form of Glutaminase 1 (GAC) (Homo sapiens)
limit-sign: =
pIC50: 5.36

// provenance: patent US8604016B2
